assay: Bioavailability in cynomolgus monkey at 5 mg/kg
Format: ADME, organism-based, Macaca fascicularis
conditions: in vivo
property.measured: bioavailability
The number alone won't do; follow it with the unit.

Form field bioavailability, entry CC(C)[C@@H](NC(=O)NCC(C)(C)O)C(=O)N1CC[C@](O)(c2ccc(Cl)cc2)C(C)(C)C1 [BMS-817399] : 40%

----------
experimental.system: C-C chemokine receptor type 1 (Homo sapiens, UniProt P32246)
Sequence (P32246 whole entry): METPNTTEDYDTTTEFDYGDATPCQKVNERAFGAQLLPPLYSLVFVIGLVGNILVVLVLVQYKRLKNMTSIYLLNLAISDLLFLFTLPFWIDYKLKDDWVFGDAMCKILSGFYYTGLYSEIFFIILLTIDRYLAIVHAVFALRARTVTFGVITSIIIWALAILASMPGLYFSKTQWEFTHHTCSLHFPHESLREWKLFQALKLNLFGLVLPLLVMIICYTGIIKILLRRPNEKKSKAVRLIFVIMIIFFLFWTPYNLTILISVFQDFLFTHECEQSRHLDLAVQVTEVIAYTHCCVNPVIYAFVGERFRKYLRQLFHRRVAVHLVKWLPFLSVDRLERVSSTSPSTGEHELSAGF
assay: Displacement of [125I]MIP-1alpha from CCR1 in human THP1 cells
Assay type: cell-based, THP-1
Entries and their pIC50 values follow.
Keep in mind that pIC50 stands for -log10 of concentration in molar terms.

Examples with their reported pIC50 follow.
{"columns": ["item.smiles", "result.number"],
 "data": [
  ["CC(C)[C@@H](NC(=O)NC[C@@H](C)O)C(=O)N1CC[C@](O)(c2ccc(Cl)cc2)C(C)(C)C1", 8.70],
  ["CC(C)[C@@H](NC(=O)CCC(C)(C)O)C(=O)N1CC[C@](O)(c2ccc(Cl)cc2)C(C)(C)C1", 8.70],
  ["CC[C@@H](C)NC(=O)N[C@@H](C(=O)N1CC[C@](O)(c2ccc(Cl)cc2)C(C)(C)C1)C(C)C", 8.52]
]}

Sample "CC(C)[C@@H](NC(=O)CC(C)(C)O)C(=O)N1CC[C@](O)(c2ccc(Cl)cc2)C(C)(C)C1" ; pIC50 observed: 8.52

----------
experimental.system: C-C chemokine receptor type 1 (Homo sapiens)
assay: Antagonist activity at CCR1 receptor in human whole blood assessed as blocked of MIP-1alpha-mediated CD11b upregulation preincubated for 1 hr
property.measured: pIC50
# reply with the number alone; pIC50 is -log10 of concentration in mol/L

The value of pIC50 recorded for CC(C)[C@@H](NC(=O)NCC(C)(C)O)C(=O)N1CC[C@](O)(c2ccc(Cl)cc2)C(C)(C)C1 [BMS-817399] when tested on C-C chemokine receptor type 1 (Homo sapiens) reads 7.60

----------
experimental.system: C-C chemokine receptor type 1 (Mus musculus)
Sequence (P51675 whole entry): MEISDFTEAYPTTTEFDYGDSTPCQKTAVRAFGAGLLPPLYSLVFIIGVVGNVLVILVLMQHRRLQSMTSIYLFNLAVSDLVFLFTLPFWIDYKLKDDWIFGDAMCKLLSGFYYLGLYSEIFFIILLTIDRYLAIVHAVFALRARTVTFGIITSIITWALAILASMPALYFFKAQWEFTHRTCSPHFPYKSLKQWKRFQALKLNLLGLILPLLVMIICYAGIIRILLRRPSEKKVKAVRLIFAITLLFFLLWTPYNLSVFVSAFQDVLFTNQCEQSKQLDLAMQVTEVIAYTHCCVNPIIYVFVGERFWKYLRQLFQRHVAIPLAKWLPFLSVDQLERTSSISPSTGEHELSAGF
pIC50: −log10 of the molar value.
property.measured: pIC50

Field pIC50 (system: C-C chemokine receptor type 1 (Mus musculus)) for entry "CC(C)[C@@H](NC(=O)NCC(C)(C)O)C(=O)N1CC[C@](O)(c2ccc(Cl)cc2)C(C)(C)C1" = < 4.30
